z-score for assorted compounds
assay: resazurin metabolic signal in HepG2 cells – cell-based, resazurin fluorescence, 24 h, PK04 Diversity Set, profiling panel (AID 1172); details: HepG2 viability, higher = more signal; further: test concentration not given here

compound	z-score
CCOC(=O)C[C@H]1[C@H](OC(=O)c2ccccc2-c2ccccc2)[C@@H](NC(=O)c2ccc3ccccc3c2)c2cc(OCCCO)ccc2N1C(=O)c1ccccc1	-0.655
COc1cc(NN2C(C(O)c3ccco3)C=CC3C(=O)N(C)C(=O)C32)cc(OC)c1OC (stereo not given)	-1.41
Oc1ccc2cc[n+](Cc3cc4c(cc3Br)OCO4)cc2c1	-0.269
COCCOC(=O)N1C(=O)[C@@]2(c3cc(C#CC4=CCCCC4)ccc31)[C@H](c1ccccc1OCCO)N1[C@H](c3ccccc3)[C@H](c3ccccc3)OC(=O)[C@H]1[C@@H]2C(=O)N1CCN(c2ncccn2)CC1	0.574
NC(=O)[C@@]1(Cc2ccccc2)COC(c2ccc(OCCCO)cc2)=N1	-0.101
O=C1C[C@]2(c3ccc([N+](=O)[O-])cc3)C(=O)N(C3CC3)c3cc(CO)ccc3[C@H]2N1CC12CC3CC(CC(C3)C1)C2	-0.742
CC(C)c1ccc(NN2C(C(O)c3ccc(F)cc3)C=CC3C(=O)N(c4ccccc4)C(=O)C32)cc1 (stereo not given)	-0.0361
Cc1ccc(S[C@]2(C(=O)NCC(F)(F)F)CC(=O)N(Cc3cc(C(F)(F)F)cc(C(F)(F)F)c3)[C@@H]2c2ccc(CO)cc2I)cc1	1.02
CCCCN1CC=CC23O[C@@H]4/C=C\CCC(C)OC(=O)C4[C@H]2C(=O)N(CCCO)[C@@H]3C1=O (stereo not given in full)	0.0917
COc1cc(OC)c(C(O)C2C=CC3C(=O)N(Cc4ccccc4)C(=O)C3N2n2cnnc2)cc1Br (stereo not given)	-0.797
COC(=O)[C@@]1(Cc2ccc(OC)cc2)[C@H]2c3cc(C(=O)N4CCCC4)n(CCc4c[nH]c5ccc(OC)cc45)c3C[C@H]2CN1C(=O)c1ccccc1	-1.23
CCCCC(CC)C(O)C1C=CC2C(=O)N(c3ccccc3)C(=O)C2N1Nc1ccc(C#N)cc1 (stereo not given)	-0.0318
CC(C)N1C(=O)C[C@@](C(=O)O)(c2ccc([N+](=O)[O-])cc2)[C@H]1c1ccc(CO)cc1	-0.847
C=CCOC(=O)[C@@H]1[C@H]2C(=O)O[C@H](c3ccccc3)[C@H](c3ccccc3)N2[C@H](c2ccc(OCCOC(=O)[C@@H]3C[C@@H]4C(=O)N[C@@H](CCCC[N+](C)(C)C)C(=O)N4[C@@H]3c3ccc(O)cc3)cc2)[C@@]12C(=O)Nc1ccc(I)cc12	0.945
[N-]=[N+]=Nc1ccccc1C[C@@]1(C(N)=O)N=C(c2ccc(OCCCO)cc2)O[C@@H]1c1ccccc1N=[N+]=[N-]	0.212
